# Test system: GES-1
# test-details: In vitro toxicity CCK-8 assay, GES-1
# Assay type: cell-based
# assay-conditions: Homo sapiens, GES1, GES-1 gastric mucosal epithelial cell, read-out: GC50 (the source's name)
pIC50: −log10 of the molar value.
outcome-measure: pIC50

>>> recorded_measurement("Cc1c(Br)c(Br)c2c3c1nc(N1CCNCC1)n3CCC2 [SEL-120-34A, reference compound]")
4.26
>>> recorded_measurement("NC(=O)c1cccc(-c2cnc3[nH]cc(-c4ccsc4)c3c2)c1")
4.62
>>> recorded_measurement("NC(=O)c1cccc(-c2cnc3[nH]cc(-c4ccoc4)c3c2)c1")
4.59

---

# measured-on: CYP 2C19 (Homo sapiens, UniProt P33261)
# Sequence (P33261 whole entry): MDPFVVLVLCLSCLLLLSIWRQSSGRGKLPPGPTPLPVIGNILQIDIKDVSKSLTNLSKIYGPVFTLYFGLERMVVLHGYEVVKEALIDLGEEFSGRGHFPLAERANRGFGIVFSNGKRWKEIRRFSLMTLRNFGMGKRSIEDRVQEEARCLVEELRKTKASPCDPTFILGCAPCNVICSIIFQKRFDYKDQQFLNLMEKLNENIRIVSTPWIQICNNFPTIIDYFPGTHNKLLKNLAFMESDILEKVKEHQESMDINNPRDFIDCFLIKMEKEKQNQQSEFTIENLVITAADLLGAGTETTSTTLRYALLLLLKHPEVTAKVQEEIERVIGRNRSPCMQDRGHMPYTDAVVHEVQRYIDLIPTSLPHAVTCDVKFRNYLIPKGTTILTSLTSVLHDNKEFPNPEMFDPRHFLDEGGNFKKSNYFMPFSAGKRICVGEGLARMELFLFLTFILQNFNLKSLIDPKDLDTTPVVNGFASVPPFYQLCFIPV
pIC50: −log10 of the molar value.
outcome-measure: pIC50

>>> recorded_measurement("NC(=O)c1cccc(-c2cnc3[nH]cc(-c4ccoc4)c3c2)c1")
"< 4.30"

---

# measured-on: CDK8 (Homo sapiens, UniProt P49336)
# Sequence (P49336 whole entry): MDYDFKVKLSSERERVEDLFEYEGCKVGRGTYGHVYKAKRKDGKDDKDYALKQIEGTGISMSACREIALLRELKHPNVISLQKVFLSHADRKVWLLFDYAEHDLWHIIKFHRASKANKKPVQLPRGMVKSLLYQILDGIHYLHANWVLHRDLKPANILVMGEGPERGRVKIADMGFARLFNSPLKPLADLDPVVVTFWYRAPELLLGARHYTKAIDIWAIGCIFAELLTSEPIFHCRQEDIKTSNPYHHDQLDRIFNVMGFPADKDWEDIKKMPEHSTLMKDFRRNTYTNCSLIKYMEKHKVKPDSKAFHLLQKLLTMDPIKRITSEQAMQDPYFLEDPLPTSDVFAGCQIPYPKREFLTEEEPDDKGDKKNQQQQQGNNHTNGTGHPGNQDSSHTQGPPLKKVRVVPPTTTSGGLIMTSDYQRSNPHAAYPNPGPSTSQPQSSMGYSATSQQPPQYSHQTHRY
# Sequence (P24863 whole entry partner): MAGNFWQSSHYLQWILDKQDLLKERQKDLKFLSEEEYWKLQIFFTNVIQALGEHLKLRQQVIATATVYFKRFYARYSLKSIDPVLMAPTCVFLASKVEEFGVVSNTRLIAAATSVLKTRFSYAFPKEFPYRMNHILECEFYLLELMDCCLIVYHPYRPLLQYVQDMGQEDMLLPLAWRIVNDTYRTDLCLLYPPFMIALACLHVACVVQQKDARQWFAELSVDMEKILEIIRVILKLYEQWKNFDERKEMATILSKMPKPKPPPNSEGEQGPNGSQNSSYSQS
# test-details: CDK8 enzyme activity assay (ADP-Glo Kinase Assay)
# Type: biochemical
# assay-conditions: CDK8, 200 nM; means ± SD, two experiments; read-out: Inhibition rate @ 200 nM (%)
Entries are grouped by inhibition at 0.2 µM into these classes: label 0 = under 50%, label 1 = from 50% up to 60%, label 2 = 60% and over

>>> class_assignment("NC(=O)c1cccc(-c2cnc3[nH]cc(-c4ccccc4)c3c2)c1")
"label 1"
>>> class_assignment("CCOC(C)n1cc(-c2c[nH]c3ncc(-c4cccc(C(N)=O)c4)cc23)cn1 (stereo not drawn)")
"label 0"
>>> class_assignment("NC(=O)c1cccc(-c2cnc(N)c(Cl)c2)c1")
"label 0"
>>> class_assignment("COc1ccccc1-c1c[nH]c2ncc(-c3cccc(C(N)=O)c3)cc12")
"label 2"
>>> class_assignment("NC(=O)c1cccc(-c2cnc3[nH]cc(-c4ccccc4C(F)(F)F)c3c2)c1")
"label 0"
>>> class_assignment("NC(=O)c1cccc(-c2cncc3ccccc23)c1")
"label 1"
>>> class_assignment("NC(=O)c1cccc(-c2cnc3[nH]cc(-c4ccoc4)c3c2)c1")
"label 2"
>>> class_assignment("NC(=O)c1cccc(-c2cnc3[nH]cc(-c4cccc(Cl)c4)c3c2)c1")
"label 2"

---

Reported Papp B→A values follow for various compounds
# test-details: Caco-2 permeability determination
# Type: in vitro ADME
# assay-conditions: human; Caco-2, B→A
outcome-measure: Papp B→A (×10⁻⁶ cm/s)

>>> recorded_measurement("CC(C)(C)NCC(O)COc1cccc2c1CC(O)C(O)C2 (stereo not shown) [Nadolol]")
0.5
>>> recorded_measurement("CC(C)NCC(O)COc1cccc2ccccc12 (stereo not shown) [Propranolol]")
34.1
>>> recorded_measurement("C[C@H]1O[C@@H](O[C@H]2[C@@H](O)C[C@H](O[C@H]3[C@@H](O)C[C@H](O[C@H]4CC[C@@]5(C)[C@H](CC[C@@H]6[C@@H]5C[C@@H](O)[C@]5(C)[C@@H](C7=CC(=O)OC7)CC[C@]65O)C4)O[C@@H]3C)O[C@@H]2C)C[C@H](O)[C@@H]1O [Digoxin]")
5.6
>>> recorded_measurement("NC(=O)c1cccc(-c2cnc3[nH]cc(-c4ccoc4)c3c2)c1 [Compound 12]")
35.1

---

# test-details: In vivo pharmacokinetic evaluation
# assay-conditions: blood, po, 10 mg/kg, 10 mg/kg (po)
outcome-measure: half-life (min)

>>> recorded_measurement("NC(=O)c1cccc(-c2cnc3[nH]cc(-c4ccoc4)c3c2)c1 [Compound 12]")
57

---

pIC50: −log10 of the molar value.
Here's what we have: pIC50 numbers for CDK8 (Homo sapiens, UniProt P49336).
outcome-measure: pIC50

>>> recorded_measurement("NC(=O)c1cccc(-c2cnc3[nH]cc(-c4cccs4)c3c2)c1")
6.73
>>> recorded_measurement("NC(=O)c1cccc(-c2cnc(N)c3ccccc23)c1")
7.19
>>> recorded_measurement("NC(=O)c1cccc(-c2cnc3[nH]cc(-c4ccsc4)c3c2)c1")
7.18
>>> recorded_measurement("NC(=O)c1cccc(-c2cnc3[nH]cc(-c4ccc(Cl)cc4)c3c2)c1")
6.89

---

Reported inhibition at 0.2 µM values follow for various compounds
# measured-on: CDK8 (Homo sapiens, UniProt P49336)
# test-details: CDK8 enzyme activity assay (ADP-Glo Kinase Assay)
# Type: biochemical
# assay-conditions: CDK8, 200 nM; means ± SD, two experiments; read-out: Inhibition rate @ 200 nM (%)
outcome-measure: inhibition at 0.2 µM (%)

>>> recorded_measurement("NC(=O)c1cccc(-c2cnc3[nH]cc(-c4ccc(F)cc4)c3c2)c1 [Compound 35]")
55.8
>>> recorded_measurement("CC(C)c1ccccc1-c1c[nH]c2ncc(-c3cccc(C(N)=O)c3)cc12 [Compound 26]")
33.1
>>> recorded_measurement("COc1cccc(-c2c[nH]c3ncc(-c4cccc(C(N)=O)c4)cc23)c1 [Compound 32]")
44
>>> recorded_measurement("Cc1ccccc1-c1c[nH]c2ncc(-c3cccc(C(N)=O)c3)cc12 [Compound 23]")
51.6
>>> recorded_measurement("NC(=O)c1cccc(-c2cnc3[nH]ncc3c2)c1 [Compound 2]")
35.2

---

Reported pIC50 values follow for various compounds
# Tested on: A375
# test-details: Antiproliferative CCK-8 assay, A375
# Assay type: cell-based
# assay-conditions: Homo sapiens, A-375; A375, CCK-8 assay, means ± SD; read-out: GC50 (the source's name)
pIC50: −log10 of the molar value.
outcome-measure: pIC50

>>> recorded_measurement("NC(=O)c1cccc(-c2cnc3[nH]cc(-c4ccoc4)c3c2)c1")
6.00
>>> recorded_measurement("Cc1c(Br)c(Br)c2c3c1nc(N1CCNCC1)n3CCC2 [SEL-120-34A, reference compound]")
5.23
>>> recorded_measurement("NC(=O)c1cccc(-c2cnc3[nH]cc(-c4ccsc4)c3c2)c1")
6.02

---

# test-details: In vivo pharmacokinetic evaluation
# assay-conditions: blood; 2 mg/kg (iv)
outcome-measure: MRT

>>> recorded_measurement("NC(=O)c1cccc(-c2cnc3[nH]cc(-c4ccoc4)c3c2)c1")
"1.64 h"

---

# test-details: In vivo pharmacokinetic evaluation
# assay-conditions: blood; 10 mg/kg (po) vs 2 mg/kg (iv)
outcome-measure: bioavailability (%)

>>> recorded_measurement("NC(=O)c1cccc(-c2cnc3[nH]cc(-c4ccoc4)c3c2)c1 [Compound 12]")
38.8

---

# measured-on: UniProtKB P49336
# test-details: CDK8 enzyme activity assay (ADP-Glo Kinase Assay)
# Type: biochemical
# assay-conditions: CDK8, 200 nM; means ± SD, two experiments; read-out: Inhibition rate @ 200 nM (%)
outcome-measure: inhibition at 0.2 µM (%)

>>> recorded_measurement("NC(=O)c1cccc(-c2cnc3[nH]cc(-c4ccccc4F)c3c2)c1 [Compound 20]")
58.7
>>> recorded_measurement("NC(=O)c1cccc(-c2cnc3[nH]cc(-c4cn[nH]c4)c3c2)c1 [Compound 15]")
49.1
>>> recorded_measurement("NC(=O)c1cccc(-c2cnc3[nH]cc(-c4ccc(C(F)(F)F)cc4)c3c2)c1 [Compound 39]")
22.3
>>> recorded_measurement("NC(=O)c1cccc(-c2ccc3sccc3c2)c1 [Compound 10]")
38.3
>>> recorded_measurement("NC(=O)c1cccc(-c2cnc3[nH]ccc3n2)c1 [Compound 1]")
63
>>> recorded_measurement("NC(=O)c1cccc(-c2cnc3[nH]cc(-c4ccccc4Cl)c3c2)c1 [Compound 21]")
23.6
>>> recorded_measurement("Cn1ccc2cc(-c3cccc(C(N)=O)c3)ccc21 [Compound 8]")
51.7
>>> recorded_measurement("Cc1c(Br)c(Br)c2c3c1nc(N1CCNCC1)n3CCC2 [SEL-120-34A, reference compound]")
82.5
>>> recorded_measurement("NC(=O)c1cccc(-c2ccc3[nH]ccc3c2)c1 [Compound 7]")
59.1

---

Here's what we have: IC50 numbers for CDK8 (Homo sapiens, UniProt P49336).
outcome-measure: IC50 (nM)

>>> recorded_measurement("NC(=O)c1cccc(-c2ccc3occc3c2)c1")
190
>>> recorded_measurement("COc1ccccc1-c1c[nH]c2ncc(-c3cccc(C(N)=O)c3)cc12")
136
>>> recorded_measurement("NC(=O)c1cccc(-c2ccc3[nH]ccc3c2)c1")
212
>>> recorded_measurement("NC(=O)c1cccc(-c2cnc3[nH]cc(-c4cccc(Cl)c4)c3c2)c1")
86.7
>>> recorded_measurement("NC(=O)c1cccc(-c2cncc3ccccc23)c1")
186
>>> recorded_measurement("NC(=O)c1cccc(-c2cnc3[nH]cc(-c4ccccc4F)c3c2)c1")
161
>>> recorded_measurement("NC(=O)c1cccc(-c2cnc3[nH]cc(-c4ccoc4)c3c2)c1")
39.2
>>> recorded_measurement("Cc1c(Br)c(Br)c2c3c1nc(N1CCNCC1)n3CCC2 [SEL-120-34A, reference compound]")
37.2
>>> recorded_measurement("Cn1ccc2cc(-c3cccc(C(N)=O)c3)ccc21")
255

src = paper PMC10810651
